- test.target: T1, P2-AA-12HGe-Q
- T1 chain: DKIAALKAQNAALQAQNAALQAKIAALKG
- assay.details: two-hybrid library CCmax;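 further: natural log of median RNA to DNA barcode read ratio; higher means stronger binding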
- condition.summary: mean of both orientations
experimental.endpoint: interaction score

binder	experimental.endpoint	val
DEIAALEAMNAALMAMNAALMAEIAALEG [P1-AA-12HGe-M]	interaction score	2.16
DEIAALEAWNAALWAWNAALWAEIAALEG [P1-AA-12HGe-W]	interaction score	1.69
DEIAALEAANAALAAANAALAAEIAALEG [P1-AA-12HGe-A]	interaction score	1.96
DEIAALEASNAALSASNAALSAEIAALEG [P1-AA-12HGe-S]	interaction score	0.702
DEIAALEARNAALRARNAALRAEIAALEG [P1-AA-12HGe-R]	interaction score	1.28
DEIAALEAYNAALYAYNAALYAEIAALEG [P1-AA-12HGe-Y]	interaction score	0.637
DEIAALEADNAALDADNAALDAEIAALEG [P1-AA-12HGe-D]	interaction score	-1.62
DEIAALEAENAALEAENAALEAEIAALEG [P1-AA]	interaction score	1.62
DEIAALEAKNAALKAKNAALKAEIAALEG [P1-AA-12HGe-K]	interaction score	1.06
DEIAALEATNAALTATNAALTAEIAALEG [P1-AA-12HGe-T]	interaction score	0.761
DEIAALEAHNAALHAHNAALHAEIAALEG [P1-AA-12HGe-H]	interaction score	0.16
DEIAALEAQNAALQAQNAALQAEIAALEG [P1-AA-12HGe-Q]	interaction score	1.8

These measurements were taken from paper PMC10397247.
